System: MCF-7 human mammary tumor cells
assayComment: inhibition of growth of MCF-7 cells (tritiated thymidine incorporation)
cond: MCF-7, 24 hours drug exposure
Label 1.0 for high-side IC30 for inhibition of growth (at or above 800 nM) and 0.0 for low-side IC30 for inhibition of growth (below it).

INSERT INTO measurements (compound, systemtested, group) VALUES
  ('CC[C@]1(O)Cc2c(O)c3c(c(O)c2[C@@H](OC2CC(N)C(O)C(C)O2)C1)C(=O)c1c(OC)cccc1C3=O (stereo partly drawn) [Compound V, 13-deoxydaunorubicin]', 'MCF-7 human mammary tumor cells', 0.0);

Kindly determine if IC30 for inhibition of growth recorded for COc1cccc2c1C(=O)c1c(O)c3c(c(O)c1C2=O)C[C@@](O)(C(C)=O)C[C@@H]3OC1CC(N)C(O)C(C)O1 (stereo partly drawn) [Daunorubicin (IV), daunorubicin] is above or exactly 800 nM.
0.0

Kindly determine if IC30 for inhibition of growth recorded for COc1cccc2c1C(=O)c1c(O)c3c(c(O)c1C2=O)C[C@@](O)(C(=O)CO)C[C@@H]3OC1CC(N)C(O)C(C)O1 (stereo partly drawn) [Doxorubicin (I), doxorubicin] is above or exactly 800 nM.
0.0

Kindly determine if IC30 for inhibition of growth recorded for CC[C@]1(O)Cc2c(O)c3c(c(O)c2[C@@H](OC2CC(N)C(O)C(C)O2)C1)C(=N)c1c(OC)cccc1C3=O (stereo partly drawn) [Compound VI] is above or exactly 800 nM.
1.0

Kindly determine if IC30 for inhibition of growth recorded for COc1cccc2c1C(=N)c1c(O)c3c(c(O)c1C2=O)C[C@@](O)(CCO)C[C@@H]3OC1CC(N)C(O)C(C)O1 (stereo partly drawn) [Compound III] is above or exactly 800 nM.
0.0

Kindly determine if IC30 for inhibition of growth recorded for COc1cccc2c1C(=O)c1c(O)c3c(c(O)c1C2=O)C[C@@](O)(CCO)C[C@@H]3OC1CC(N)C(O)C(C)O1 (stereo partly drawn) [Compound II, 13-deoxydoxorubicin] is above or exactly 800 nM.
0.0
